# Test system: human SMAD7 mRNA
# Assay Explanation: Dose-dependent inhibition of human SMAD7 mRNA expression in Hep3B cells, comparison with ION 28453 (Example 4)
# Assay type: cell-based
# Assay Conditions: electroporation, 2.22 μM, approximately 16 hours
Strand notation (5' to 3'): a small letter for the sugar, then the base; units joined by * are phosphorothioate-linked, units joined directly phosphodiester-linked; [ ] holds rarer units or linkages, { } end groups; capitals alone tell only the bases. k = constrained ethyl (cEt); [5mC] = 5-methylcytosine; d = 2'-deoxy (DNA)
Property Measured: % inhibition of SMAD7 mRNA expression (%)
Your answer is read as %, so omit the unit and give the number.

Field: example entries. Status: answers known.
| Substance | % inhibition of SMAD7 mRNA expression, % |
| --- | --- |
| 798781 (CGTAAGATTCACAGCA; 3-10-3 cEt gapmer, further chemistry not given here) [compound 798781] | 66 |
| 800821 (antisense kG*k[5mC]*kT*dA*dA*dA*dT*dT*dT*d[5mC]*d[5mC]*dA*dA*kT*kG*kA) [compound 800821] | 35 |
| 799184 (antisense kA*kA*k[5mC]*d[5mC]*dT*dT*dT*dG*dT*dA*dG*dT*dT*kA*kG*kA) [compound 799184] | 18 |

*Q* What does the record list as % inhibition of SMAD7 mRNA expression for 801040 (antisense kG*kT*k[5mC]*dA*dT*dG*dA*dA*dA*dG*dA*dT*dT*k[5mC]*kT*kT) [compound 801040] ?
*A* 67

*Q* What does the record list as % inhibition of SMAD7 mRNA expression for 801051 (antisense kG*kT*kG*dT*dT*d[5mC]*dA*dA*d[5mC]*dA*dA*dT*dG*k[5mC]*kT*kT) [compound 801051] ?
*A* 34

---

# Tested on: dog SMAD7 mRNA
# Assay Explanation: Pharmacology: dog SMAD7 mRNA expression in liver, kidney, duodenum, ileum and colon after subcutaneous administration in beagle dogs (Example 8)
# Type: in vivo
# Assay Conditions: 30 mg/kg subcutaneous, necropsy, kidney, normalized to HPRT1
Reported % inhibition of Smad7 mRNA expression (compared to control), Kidney values are given for each entry in this list.
Your answer is read as %, so omit the unit and give the number.

| Substance | Observed |
| --- | --- |
| 790615 (CCAATGAGAATGCTTC; 3-10-3 cEt gapmer, further chemistry not given here) [compound 790615] | 37 |
| 798781 (CGTAAGATTCACAGCA; 3-10-3 cEt gapmer, further chemistry not given here) [compound 798781] | 28 |
| 829994 (GGAGGCAGGGCCGCGA; 3-10-3 cEt gapmer, further chemistry not given here) [compound 829994] | 0 |
| 830025 (antisense TTTGTAAATCGAAAGC; 3-10-3 cEt gapmer, further chemistry not given here) [compound 830025] | 25 |
| 830121 (AGAATCAAGCCCTGGC; 3-10-3 cEt gapmer, further chemistry not given here) [compound 830121] | 39 |

--- query ---
*Q* What does the record list as % inhibition of Smad7 mRNA expression (compared to control), Kidney for 830037 (antisense CTATTGGCTGATCTGG; 3-10-3 cEt gapmer, further chemistry not given here) [compound 830037] ?
*A* 40
